B1: OR4K15 (parent)
chain: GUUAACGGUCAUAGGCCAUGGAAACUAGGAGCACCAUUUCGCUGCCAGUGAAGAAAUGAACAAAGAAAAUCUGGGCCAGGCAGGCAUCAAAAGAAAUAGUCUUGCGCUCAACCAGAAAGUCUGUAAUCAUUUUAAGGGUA

# Variants of: B1
# experimental_details: self-cleavage, relative activity (ratio to wild type); higher = more cleavage; in vitro, sequencing; the parent is a self-cleaving ribozyme
metric_name: self-cleavage

> print(dat)
    variant.descriptor    metric.name  value.measured
 1          A90U A111U  self-cleavage            0.11
 2           A13G U57C  self-cleavage            1.18
 3           G20A A64G  self-cleavage            1.49
 4         U102C C107G  self-cleavage            0.01
 5         U124A U132C  self-cleavage            0.13
 6         A111G U127A  self-cleavage            0.01
 7           U38A A52U  self-cleavage            1.64
 8          U49G A114G  self-cleavage            0.06
 9           A55G U97A  self-cleavage            1.51
10          A98U A116U  self-cleavage            0.97
11           G83A A86G  self-cleavage            2.15
12          A62G A116G  self-cleavage            0.64
13         U120C G138U  self-cleavage            2.11
14           C6A U127C  self-cleavage            0.49
15          A63U U100A  self-cleavage            0.96
16          G84U A114G  self-cleavage            0.45
17            A4G U70A  self-cleavage            1.14
18          C25U G136A  self-cleavage            1.84
19           A33G A92U  self-cleavage            0.42
20           U19A G48A  self-cleavage            1.35
21           G14A A59G  self-cleavage            1.27
22          U72A U120C  self-cleavage            0.18

All values here come from the RNAGym collection of RNA variant scans (doi:10.7554/elife.90254).
